- system-under-test: Peroxisome proliferator-activated receptor gamma (Homo sapiens) (UniProt P37231)
- Sequence (P37231 whole entry, looked up): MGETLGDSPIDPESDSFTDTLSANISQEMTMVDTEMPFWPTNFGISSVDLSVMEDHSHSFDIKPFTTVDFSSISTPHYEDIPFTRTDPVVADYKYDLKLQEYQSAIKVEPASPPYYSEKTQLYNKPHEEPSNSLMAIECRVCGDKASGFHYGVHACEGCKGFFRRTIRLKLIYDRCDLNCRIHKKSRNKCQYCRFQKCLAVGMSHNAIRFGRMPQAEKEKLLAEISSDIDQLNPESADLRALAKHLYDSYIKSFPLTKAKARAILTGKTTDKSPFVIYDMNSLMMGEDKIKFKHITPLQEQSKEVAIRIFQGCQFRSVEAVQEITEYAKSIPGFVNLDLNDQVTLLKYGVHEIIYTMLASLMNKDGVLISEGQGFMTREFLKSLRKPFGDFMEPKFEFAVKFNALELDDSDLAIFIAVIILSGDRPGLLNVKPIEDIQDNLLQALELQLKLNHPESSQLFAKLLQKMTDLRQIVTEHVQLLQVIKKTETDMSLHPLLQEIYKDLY
- test-summary: ATG_PPARg_TRANS: Attagene TRANS-FACTORIAL HepG2 Assay for human Peroxisome Proliferator-activated Receptor-gamma (PPARg) (AID 2283007)
Results filed as inconclusive are left out. Calls of active or inactive are those of the source. Rule for the calls: active = hit-call score of the fitted dose curve at least 0.9, where 1 is the maximum; inconclusive = response in the unintended direction; inactive = score below 0.9.
// classify into active, inactive

Would you please look over these solved cases?
CC1COc2ccccc2N1C(=O)C(Cl)Cl (centres undefined) : inactive
O=Nc1ccc(Nc2ccccc2)cc1 : active

What did this assay record as the result for Cc1cccc(Nc2ccccc2C(=O)O)c1C ?
active

What did this assay record as the result for CCN(CC)CCOC(=O)c1ccc(N)cc1 ?
inactive

###

- Read-out: Interleukin-1 alpha (IL1a), IL1A (gene 3552)
- test-summary: BSK_KF3CT_IL1a: BioMAP Diversity Plus: KF3CT Assay for Interleukin-1 alpha (IL1a) Biomarker Activity (AID 2283070)
- condition: primary human keratinocytes with fibroblasts; actives raise or lower the signal
The source made the active and inactive calls. How the source made its calls: active means hit-call score of the fitted dose curve at least 0.9, where 1 is the maximum; inactive means score below 0.9.
// classify into TRUE (active), FALSE (inactive)

BrC1CCC(Br)C(Br)CCC(Br)C(Br)CCC1Br (stereo not drawn) : FALSE
CC1COc2ccccc2N1C(=O)C(Cl)Cl (stereo not drawn) : TRUE
O=C1OC2(c3cc(Br)c(O)c(Br)c3Oc3c2cc(Br)c(O)c3Br)c2c(Cl)c(Cl)c(Cl)c(Cl)c21 : TRUE

What did this assay record as the result for CCCCCCCCC=O ?
FALSE

What did this assay record as the result for CC(=O)Nc1ccccc1O ?
FALSE

What did this assay record as the result for COc1cc(C=O)ccc1OC(=O)C(C)C ?
FALSE

What did this assay record as the result for OC1OC[C@@H](O)[C@H](O)[C@H]1O (stereo partly drawn) ?
FALSE

What did this assay record as the result for O=P(c1ccccc1)(c1ccccc1)c1ccccc1 ?
FALSE

What did this assay record as the result for O=[N+]([O-])c1cc(C(F)(F)F)ccc1Cl ?
FALSE

###

- Read-out: serum amyloid A (SAA), SAA1 (gene 6288)
- test-summary: BSK_CASM3C_SAA: BioMAP Diversity Plus: CASM3C Assay for serum amyloid A (SAA) Biomarker Activity (AID 2283049);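 note: SAA protein level quantified by ELISA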
- condition: primary human coronary artery smooth muscle cells; actives raise or lower the signal
Calls of active or inactive are those of the source. How the source made its calls: active means hit-call score of the fitted dose curve at least 0.9, where 1 is the maximum; inactive means score below 0.9.
// classify into YES (active), NO (inactive)

Would you please look over these solved cases?
O=C(O)c1cn(-c2ccc(F)cc2)c2cc(N3CCNCC3)c(F)cc2c1=O : NO
COc1cc(C=O)ccc1OC(=O)C(C)C : NO
c1ccc2c(c1)c1cccc3ccc4cccc2c4c31 : NO
Cc1ccc2n[nH]nc2c1 : NO
Cc1cc(C2(c3cc(C)c(O)cc3C)OS(=O)(=O)c3ccccc32)c(C)cc1O : NO
O=C(O)C[C@H](O)C[C@H](O)/C=C/c1c(C2CC2)nc2ccccc2c1-c1ccc(F)cc1 : NO
BrC1CCC(Br)C(Br)CCC(Br)C(Br)CCC1Br (stereo not drawn) : NO

Next up:
What did this assay record as the result for CC1CCC(C(C)CS)CC1S (stereo not drawn) ?
YES

###

- Read-out: Interleukin-8 (IL8), CXCL8 (gene 3576)
- test-summary: BSK_3C_IL8: BioMAP Diversity Plus: 3C Assay for Interleukin-8 (IL8) Biomarker Activity (AID 2283020)
- condition: primary human endothelial cells (HUVEC); actives raise or lower the signal
Calls of active or inactive are those of the source. Rule for the calls: active = hit-call score of the fitted dose curve at least 0.9, where 1 is the maximum; inactive = score below 0.9.
// classify into T for active, F for inactive

Would you please look over these solved cases?
CC(=O)Nc1ccccc1O : F
CCc1c(C)cc(N)c(CC)c1N : F
CC1CCC(C(C)CS)CC1S (configuration not stated) : F
CC(C)(COC(=O)c1ccccc1)COC(=O)c1ccccc1 : F
CCCCC(CC)COCCC#N (configuration not stated) : F
O=C1OC2(c3cc(Br)c(O)c(Br)c3Oc3c2cc(Br)c(O)c3Br)c2c(Cl)c(Cl)c(Cl)c(Cl)c21 : T

What did this assay record as the result for OC[C@H]1O[C@H](O[C@]2(CCl)O[C@H](CCl)[C@@H](O)[C@@H]2O)[C@H](O)[C@@H](O)[C@H]1Cl ?
F

###

- Read-out: E-selectin (Homo sapiens) (UniProt P16581)
- Sequence (P16581 whole entry, looked up): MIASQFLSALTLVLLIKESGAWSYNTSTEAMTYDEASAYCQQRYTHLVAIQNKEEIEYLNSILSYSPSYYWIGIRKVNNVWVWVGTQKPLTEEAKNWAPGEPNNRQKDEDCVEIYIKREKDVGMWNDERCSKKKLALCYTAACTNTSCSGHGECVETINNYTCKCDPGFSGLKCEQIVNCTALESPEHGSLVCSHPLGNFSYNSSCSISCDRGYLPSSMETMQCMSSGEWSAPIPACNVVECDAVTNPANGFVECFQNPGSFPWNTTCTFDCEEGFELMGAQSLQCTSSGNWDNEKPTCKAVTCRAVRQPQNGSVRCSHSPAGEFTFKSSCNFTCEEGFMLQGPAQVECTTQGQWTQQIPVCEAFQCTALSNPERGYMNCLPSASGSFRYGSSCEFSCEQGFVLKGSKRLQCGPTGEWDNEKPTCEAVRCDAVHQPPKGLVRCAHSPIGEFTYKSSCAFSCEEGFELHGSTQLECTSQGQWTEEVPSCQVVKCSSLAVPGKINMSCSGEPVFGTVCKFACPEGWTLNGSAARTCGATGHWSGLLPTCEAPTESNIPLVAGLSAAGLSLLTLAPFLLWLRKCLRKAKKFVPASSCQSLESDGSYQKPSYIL
- test-summary: BSK_LPS_Eselectin: BioMAP Diversity Plus: LPS Assay for Eselectin Biomarker Activity (AID 2283077)
- condition: primary human HUVEC with PBMC; actives raise or lower the signal
The source made the active and inactive calls. How the source made its calls: active means hit-call score of the fitted dose curve at least 0.9, where 1 is the maximum; inactive means score below 0.9.
// classify into active, inactive

What did this assay record as the result for C[C@H]1C[C@@H]2[C@H]([C@@H](O)C[C@@]3(C)[C@H]2CC[C@]3(O)C(=O)CO)[C@@]2(C)C=CC(=O)C=C12 ?
inactive

What did this assay record as the result for C#C[C@]1(O)CC[C@H]2[C@@H]3CCC4=Cc5oncc5C[C@]4(C)[C@H]3CC[C@@]21C ?
inactive

What did this assay record as the result for OC[C@H]1O[C@H](O[C@]2(CCl)O[C@H](CCl)[C@@H](O)[C@@H]2O)[C@H](O)[C@@H](O)[C@H]1Cl ?
inactive

What did this assay record as the result for Nc1cc([N+](=O)[O-])ccc1Cl ?
inactive

What did this assay record as the result for O=[N+]([O-])c1cc(C(F)(F)F)ccc1Cl ?
inactive

What did this assay record as the result for CCCCCCCCC=O ?
inactive

What did this assay record as the result for CC[Si](OC(C)=O)(OC(C)=O)OC(C)=O ?
inactive

What did this assay record as the result for C=C[Si](OCC)(OCC)OCC ?
inactive

What did this assay record as the result for CCC(=O)OCc1ccccc1 ?
inactive

###

- test-summary: ATG_PPRE_CIS: Attagene CIS-FACTORIAL HepG2 Assay for human Peroxisome Proliferator-activated Response Element (PPRE) (AID 2282958)
- condition: HepG2 PPRE cis-element reporter, Attagene transcription factor profiling; actives raise or lower the signal
The source made the active and inactive calls. How the source made its calls: active means hit-call score of the fitted dose curve at least 0.9, where 1 is the maximum; inactive means score below 0.9.
// classify into active, inactive

Would you please look over these solved cases?
CN(C)CCCN : inactive
C=CC(C)(CCC=C(C)C)OC=O (stereo not drawn) : inactive
COc1ccc(Nc2ccccc2)c(C)c1 : active
O=Nc1ccc(Nc2ccccc2)cc1 : inactive

What did this assay record as the result for CO[Si](C)(OC)c1ccccc1 ?
inactive

What did this assay record as the result for O=C1CCc2ccccc2O1 ?
inactive

What did this assay record as the result for C=C[C@@H](C)CCC=C(C)C ?
inactive

What did this assay record as the result for CC(=O)c1c(C)cc(C(C)(C)C)cc1C ?
inactive

###

- Read-out: Interleukin 6 (IL6), IL6 (gene 3569)
- test-summary: BSK_BT_xIL6: BioMAP Diversity Plus: BT Assay for Interleukin 6 (IL6) Biomarker Activity (AID 2284228)
- condition: primary human B cells with PBMC
Activity calls are given as the source filed them. Rule for the calls: active = hit-call score of the fitted dose curve at least 0.9, where 1 is the maximum; inactive = score below 0.9.
// classify into active, inactive

Would you please look over these solved cases?
CCCCC/C=C/C=C/C=O : active
CC(C)Oc1ccccc1O : inactive
c1ccc2sc(SN(C3CCCCC3)C3CCCCC3)nc2c1 : inactive
O=C1CCCCCCCCCCCCCCO1 : active
C=C(C)C(=O)O[C@H]1C[C@@H]2CC[C@@]1(C)C2(C)C : inactive
O=C(O)c1cn(-c2ccc(F)cc2)c2cc(N3CCNCC3)c(F)cc2c1=O : inactive
CCCCC(CC)COCCC#N (stereo unspecified) : inactive
O=[N+]([O-])c1cc(C(F)(F)F)ccc1Cl : inactive
Nc1cc([N+](=O)[O-])ccc1Cl : inactive
Cc1ccc(Nc2ccc(O)c3c2C(=O)c2ccccc2C3=O)cc1 : inactive

Next up:
What did this assay record as the result for Cc1ccc2n[nH]nc2c1 ?
inactive

###

- test-summary: ATG_AP_1_CIS: Attagene CIS-FACTORIAL HepG2 Assay for human Activator Protein 1 (AP-1) (AID 2282931)
- condition: HepG2 Attagene cis-factorial AP-1 reporter mRNA; actives raise or lower the signal
The source made the active and inactive calls. The calls were made as follows: active = hit-call score of the fitted dose curve at least 0.9, where 1 is the maximum; inactive = score below 0.9.
// classify into active, inactive

O=C1O[C@@H]2[C@@H](O)[C@H](O)O[C@@H]2[C@H]1O : inactive
C=C(C)[C@@H]1CCC2=CC(=O)C[C@@H](C)[C@]2(C)C1 : active
Cc1ccc(S)cc1 : active

What did this assay record as the result for C=C(C)C(=O)OCCOC(=O)CC(C)=O ?
inactive

What did this assay record as the result for O=[N+]([O-])c1ccc(Nc2ccc(Nc3ccccc3)c(S(=O)(=O)O)c2)c([N+](=O)[O-])c1 ?
active

What did this assay record as the result for O=Cc1ccc(Cl)c([N+](=O)[O-])c1 ?
active

###

- Read-out: E-selectin (Homo sapiens) (UniProt P16581)
- test-summary: BSK_3C_Eselectin: BioMAP Diversity Plus: 3C Assay for Eselectin Biomarker Activity (AID 2283015)
- condition: primary human endothelial cells (HUVEC); actives raise or lower the signal
Active and inactive are the calls of the source. The calls were made as follows: active = hit-call score of the fitted dose curve at least 0.9, where 1 is the maximum; inactive = score below 0.9.
readout-name: AC50

COc1cc(C=O)ccc1OC(=O)C(C)C : inactive
C=C[Si](OCC)(OCC)OCC : inactive
CC1CCC(C(C)CS)CC1S (stereo not drawn) : 30.6 µM (active)
